Each recorded value in this set is attributed to patent US10294237B2.

System: HCT-116 cells
Test: Test for inhibiting sphere-forming ability of cancer cells (in the presence of BSA)
Type: cell-based
Details: Homo sapiens, HCT-116, 96 h, HCT-116 spheres, non-adherent, 5% BSA, 4 days, CellTiter-Glo; read-out: IC50 (Sphere IC50 value; concentration for 50% inhibition of cell proliferation)
endpoint: IC50 (nM)

A selection of reference data follows.
structure string	IC50 (nM)
O=C(Nc1cn(Cc2cccc(Oc3ccccc3)c2)cn1)c1ccc2c(c1)CCNC2	640
O=C(Nc1cn(Cc2cccc(C(F)(F)F)c2)cn1)c1cc2c(s1)CCNC2	6000
O=C(Nc1cn(Cc2ccc(Cl)c(C(F)(F)F)c2)cn1)c1ccc2c(c1)CCNC2	70
O=C(Nc1cn(Cc2cccc(Oc3ccccc3)c2)cn1)c1cnc2c(c1)CCNC2	660

a. O=C(Nc1cc2c(cc1F)CNCC2)c1cn(Cc2cc(F)c(F)c(F)c2)cn1
b. O=C(/C=C/c1ccc2c(c1)CCNC2)Nc1cn(Cc2cc(F)c(F)c(F)c2)cn1
Parameter metric = IC50. Return the lower-valued option from a and b . Pick one and reply with its label.
a

P. Cc1ccc(Cn2cnc(NC(=O)c3ccc4c(c3)CCNC4)c2)cc1C(F)(F)F
Q. O=C(Nc1cn(Cc2ccc(F)c(C(F)(F)F)c2)cn1)c1ccc2c(c1)CCNC2
Please choose the item with the lower IC50 value from this pair: P and Q Use the label to indicate which entry you chose.
Q
(Q: 90 nM, P: 590 nM)

###

Test system: HCT-116 cells
Assay: Test for inhibiting sphere-forming ability of cancer cells
Type: cell-based
Details: Homo sapiens, 96 h; HCT-116 spheres, non-adherent, serum-free, 4 days, CellTiter-Glo; read-out: IC50 (Sphere IC50 value; concentration for 50% inhibition of cell proliferation)
endpoint: IC50 (nM)

In the examples that follow, each entry is paired with its recorded IC50.
structure string	value observed
O=C(Nc1cn(Cc2cccc(C(F)(F)F)c2)cn1)c1ccc2c(c1)CNC2	1480
O=C(Nc1cn(Cc2cc(F)cc(Cl)c2)cn1)c1cnc2c(c1)CCNC2	60
O=C(Nc1cn(Cc2cc(Cl)cc(OC(F)(F)F)c2)cn1)c1cnc2c(c1)CCNC2	40

1. O=C(Nc1cn(Cc2cc(F)c(F)c(F)c2)cn1)c1cnc2c(c1)CCNC2
2. O=C(Nc1cn(Cc2cccc(Cl)c2)cn1)c1ccc2c(n1)CCNC2
Form: Entry with minimum IC50 (choose one): 1 / 2 Your answer should be the label of the entry you select.
1

###

System: HCT-116 cells
Experiment: Test for inhibiting sphere-forming ability of cancer cells (in the presence of BSA)
Format: cell-based
Conditions: Homo sapiens, HCT-116, 96 h, HCT-116 spheres, non-adherent, 5% BSA, 4 days, CellTiter-Glo; read-out: IC50 (Sphere IC50 value; concentration for 50% inhibition of cell proliferation)
pIC50: −log10 of the molar value.
endpoint: pIC50

molecule	target of assay	pIC50
O=C1Nc2cc(C(=O)Nc3cn(Cc4cccc(C(F)(F)F)c4)cn3)cnc2CO1 [Example 24]	HCT-116 cells	6.17

A. O=C(Nc1cn(Cc2cc(F)c(F)c(F)c2)cn1)c1ccc2c(c1F)CCNC2 [Example 14]
B. O=C(Nc1cn(Cc2ccc(Cl)c(F)c2)cn1)c1cnc2c(c1)CCNC2 [Example 51]
From the recorded data, which exceeds the other in pIC50: A or B ? Select an item and report its label.
B
(B: 7.30, A: 6.34)

###

Test system: HCT-116 cells
Assay: Test for inhibiting sphere-forming ability of cancer cells (in the presence of BSA)
Assay type: cell-based
Settings: Homo sapiens, HCT-116, 96 h, HCT-116 spheres, non-adherent, 5% BSA, 4 days, CellTiter-Glo; read-out: IC50 (Sphere IC50 value; concentration for 50% inhibition of cell proliferation)
Protocol: HCT-116 cells were available from the American Type Culture Collection (ATCC). HCT-116 cells were cultured at 37° C. and 5% CO2 using the McCoy's 5a medium containing 10% fetal bovine serum (FBS) and 1% penicillin/streptomycin. […]
pIC50: −log10 of the molar value.
endpoint: pIC50

// known answers, use as guide
structure string	pIC50
O=C(Nc1cn(Cc2cc(F)c(F)c(F)c2)cn1)c1ccc2c(c1)CCNC2	7.05
O=C(Nc1cn(Cc2cccc(Cl)c2)cn1)c1ccc2c(n1)CCNC2	6.24
O=C(Nc1ccc2c(c1)CCNC2)c1cn(Cc2cc(F)c(F)c(F)c2)cn1	6.25

I. O=C1CCc2cc(C(=O)Nc3cn(Cc4cc(F)c(F)c(F)c4)cn3)ccc2N1
II. O=C(/C=C/c1ccc2c(c1)OCO2)Nc1cn(Cc2cccc(Cl)c2)cn1
When I and II are compared, which has the higher number for pIC50? Which one? Tell me its label.
II
(II: 7.05, I: 6.23)

###

Tested on: HCT-116 cells
Experiment: Test for inhibiting sphere-forming ability of cancer cells (in the presence of BSA)
Format: cell-based
Conditions: Homo sapiens, HCT-116, 96 h, HCT-116 spheres, non-adherent, 5% BSA, 4 days, CellTiter-Glo; read-out: IC50 (Sphere IC50 value; concentration for 50% inhibition of cell proliferation)
pIC50: −log10 of the molar value.
endpoint: pIC50

structure string	value observed
O=C(Nc1cn(Cc2cccc(O)c2)cn1)c1ccc2c(c1)CCNC2	5.20
O=C(Nc1cn(Cc2cc(F)cc(Cl)c2)cn1)c1ccc2c(c1)CCNC2	7.10
O=C(Nc1cn(Cc2cc(Cl)cc(Cl)c2)cn1)c1ccc2c(c1)CCNC2	7.22

a. O=C(Nc1cn(Cc2cc(F)c(F)c(F)c2)cn1)c1cnc2c(c1)CCNC2
b. Cc1c(NC(=O)c2ccc3c(c2)CCNC3)ncn1Cc1cccc(C(F)(F)F)c1
Look at a and b . Which one has the lower recorded pIC50 number? // output: label of the selected item
b
(b: 5.21, a: 7.22)

###

System: HCT-116 cells
Assay: Test for inhibiting sphere-forming ability of cancer cells (in the presence of BSA)
Format: cell-based
Settings: Homo sapiens, HCT-116, 96 h, HCT-116 spheres, non-adherent, 5% BSA, 4 days, CellTiter-Glo; read-out: IC50 (Sphere IC50 value; concentration for 50% inhibition of cell proliferation)
endpoint: IC50 (nM)

Record excerpt, results attached:
structure string	endpoint	value observed
O=C(Nc1cn(Cc2cccc(C(F)(F)F)c2)cn1)c1ccc2c(c1)CNCC2	IC50	700
O=C(Nc1cn(Cc2cc(Br)cc(Br)c2)cn1)c1ccc2c(c1)CCNC2	IC50	200

a. O=C(Nc1cn(Cc2cc(F)c(F)c(F)c2)cn1)c1cc2c(cc1F)CNCC2
b. O=C(Nc1cn(Cc2cc(F)c(F)c(F)c2)cn1)c1ccc2c(n1)CCNC2
c. O=C(Nc1cn(Cc2ccc3ccccc3c2)cn1)c1ccc2c(c1)CCNC2
d. O=C(Nc1cn(Cc2ccc(F)c(Cl)c2)cn1)c1ccc2c(c1)CCNC2
Rank the 4 molecules: largest IC50 first, smallest last. Give me the labels in the order the question wants.
c, a, d, b

###

Tested on: HCT-116 cells
Experiment: Test for inhibiting sphere-forming ability of cancer cells (in the presence of BSA)
Assay type: cell-based
Conditions: Homo sapiens, HCT-116, 96 h, HCT-116 spheres, non-adherent, 5% BSA, 4 days, CellTiter-Glo; read-out: IC50 (Sphere IC50 value; concentration for 50% inhibition of cell proliferation)
pIC50: −log10 of the molar value.
endpoint: pIC50

a. O=C(Nc1cn(Cc2ccc(F)c(C(F)(F)F)c2)cn1)c1cnc2c(c1)CCNC2
b. COc1cc(Cn2cnc(NC(=O)c3ccc4c(c3)CCNC4)c2)cc(OC)c1
Short answer wanted: higher pIC50, a or b ? Selection: enter the item's label.
a

I. O=C(Nc1cn(Cc2cc(Cl)cc(OC(F)(F)F)c2)cn1)c1cnc2c(c1)CCNC2
II. O=C(Nc1cn(Cc2cccc(C(F)(F)F)c2)cn1)c1ccc2c(c1)CCC(O)C2 (stereo not shown)
Returns: the argument ( I or II ) having the larger pIC50. Could you answer with the label of the item you picked?
I
(I: 7.22, II: 6.01)

###

System: HCT-116 cells
Assay: Test for inhibiting sphere-forming ability of cancer cells
Type: cell-based
Details: Homo sapiens, 96 h; HCT-116 spheres, non-adherent, serum-free, 4 days, CellTiter-Glo; read-out: IC50 (Sphere IC50 value; concentration for 50% inhibition of cell proliferation)
pIC50: −log10 of the molar value.
endpoint: pIC50

Example entries and their recorded answers appear below.
compound	pIC50
O=C1CCc2cc(C(=O)Nc3cn(Cc4cc(F)c(F)c(F)c4)cn3)ccc2N1 [Example 37]	7.05
O=C(Nc1cn(Cc2cccc(OC(F)(F)F)c2)cn1)c1cnc2c(c1)CCNC2 [Example 49]	7.15
O=C(Nc1cc2c(cc1F)CNCC2)c1cn(Cc2ccc(F)c(F)c2)cn1 [Example 2]	6.18

A. O=C(Nc1cn(Cc2cc(F)cc(F)c2)cn1)c1cnc2c(c1)CCNC2 [Example 47]
B. O=C(Nc1cn(Cc2cccc(C(F)(F)F)c2)cn1)c1cnc2c(c1)CCNC2 [Example 13]
Could you tell me which of A and B has the lower pIC50 reading? Return value: the label identifying the chosen record.
A
(A: 7.10, B: 7.52)

a. O=C(Nc1cn(Cc2cc(F)c(F)c(F)c2)cn1)c1cc2c(cn1)CNCC2 [Example 8]
b. O=C(/C=C/c1ccc2c(c1)CCNC2)Nc1cn(Cc2cc(F)c(F)c(F)c2)cn1 [Example 112]
Hi, I'm comparing a with b and wondering which one has the bigger number for pIC50. Any idea? Label of pick, please.
a
